Biological target: UniProtKB Q13627
Item-by-item account of log10 IC50
Use the decimal logarithm of IC50 (µM).

Field: example entries. Status: answers known.
>>> df
                                   compound  experimental_endpoint  data_value
0  O=C1CCc2[nH]c3c(Cl)cccc3c21 [compound 12]             log10 IC50       -0.15
1  O=C1CCCc2[nH]c3c(Cl)cccc3c21 [compound 13]             log10 IC50        0.20
2  O=c1ccccc2[nH]c3c(Cl)cccc3c12 [compound 11, 4-Chlorocyclohepta[b]indol-10(5H)-one]             log10 IC50       -0.70
3  O=C1NCCc2[nH]c3c(Cl)cccc3c21 [compound 14]             log10 IC50       -0.72

Exam item: Bench note: what log10 IC50 did O=C1NCCCc2[nH]c3c(Cl)cccc3c21 [compound 15] show?
Marked response: 0.34

====

Catalogue of IC50 readings, one per entry.
Molecular target: CDK2 (Homo sapiens, UniProt P24941)

Exam item: Entry O=c1ccccc2[nH]c3c(Cl)cccc3c12 [compound 11, 4-Chlorocyclohepta[b]indol-10(5H)-one] , system CDK2 (Homo sapiens, UniProt P24941): what IC50 was measured?
Marked response: > 10 µM

Exam item: What reported IC50 corresponds to "O=C1NCCCc2[nH]c3c(Cl)cccc3c21" on CDK2 (Homo sapiens, UniProt P24941)?
Marked response: 2.5 µM

Exam item: For the record "O=C1NCCc2[nH]c3c(Cl)cccc3c21" , what value of IC50 is listed for CDK2 (Homo sapiens, UniProt P24941)?
Marked response: 1.7 µM

Exam item: Query the reported IC50 for CDK2 (Homo sapiens, UniProt P24941); item: "O=C1CCc2[nH]c3c(Cl)cccc3c21"
Marked response: > 10 µM

====

Below, each entry is listed with its recorded IC50.
Biological target: GSK-3
Experiment: Protein kinase assay, radiometric
Conditions: dose response curves, triplicates
Numeric only. Scale: µM

>>> df
                   smiles_input  data_value
0  O=C1NCCc2[nH]c3c(Cl)cccc3c21         2.7

Field: next compound
Exam item: Entry "O=C1CCCc2[nH]c3c(Cl)cccc3c21" has what IC50?
Marked response: 4.4

====

Biological target: CLK1 (Mus musculus, UniProt P22518)
Sequence (P22518 whole entry): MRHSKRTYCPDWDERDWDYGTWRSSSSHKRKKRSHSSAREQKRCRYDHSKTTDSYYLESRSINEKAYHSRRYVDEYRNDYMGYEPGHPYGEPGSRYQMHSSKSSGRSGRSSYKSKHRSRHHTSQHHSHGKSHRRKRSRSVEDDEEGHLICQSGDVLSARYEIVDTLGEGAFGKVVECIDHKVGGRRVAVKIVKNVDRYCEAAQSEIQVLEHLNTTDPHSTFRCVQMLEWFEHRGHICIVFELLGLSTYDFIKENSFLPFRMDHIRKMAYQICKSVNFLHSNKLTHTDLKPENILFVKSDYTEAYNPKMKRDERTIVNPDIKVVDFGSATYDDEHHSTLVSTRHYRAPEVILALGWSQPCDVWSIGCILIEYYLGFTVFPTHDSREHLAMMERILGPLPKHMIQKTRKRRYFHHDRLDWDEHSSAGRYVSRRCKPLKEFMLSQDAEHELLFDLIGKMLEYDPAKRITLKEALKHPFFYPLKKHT
Experiment: Protein kinase assay, radiometric
Format: biochemical
Conditions: dose response curves, triplicates
Procedure: The new compounds 11–16 were tested on an array of protein kinases of the CMGC family. First, the kinases were incubated with 10 µM solutions of the test compounds and the residual activities compared to controls were measured. The IC50 values of promising compounds were then determined from concentration-response curves (Table 1). Protein kinase assays with the derivatives 11–15 were carried out by radiometric methods using protein kinases, reagents, and conditions as described before. […]
Parameter IC50: see the listing below.
Value and unit, in that order.

// worked examples, IC50 included
                                   compound                target_or_test_system  experimental_endpoint  data_value
0  O=C1CCc2[nH]c3c(Cl)cccc3c21 [compound 12]  CLK1 (Mus musculus, UniProt P22518)                   IC50     0.89 µM
1  O=c1ccccc2[nH]c3c(Cl)cccc3c12 [compound 11, 4-Chlorocyclohepta[b]indol-10(5H)-one]  CLK1 (Mus musculus, UniProt P22518)                   IC50     0.17 µM

Exam item: # get_value(readout='IC50', item= O=C1CCCc2[nH]c3c(Cl)cccc3c21 [compound 13] )
Marked response: 0.3 µM

Exam item: Dear colleague, I am looking for the recorded IC50 of the following compound: O=C1NCCCc2[nH]c3c(Cl)cccc3c21 [compound 15]
Marked response: 0.32 µM

Exam item: Could you tell me which IC50 is on file for O=C1NCCc2[nH]c3c(Cl)cccc3c21 [compound 14] ?
Marked response: 0.12 µM

====

Assay: Thermodynamic solubility, shake-flask method with HPLC
Assay type: physicochemical
Conditions: aqueous phosphate buffer, thermodynamic from solid, phosphate buffer pH 7.4, shake-flask, 25 °C, mean value and range, read-out: Sexp., therm., pH 7.4 (thermodynamic solubility)
experimental_endpoint: solubility thermodynamic

Exam item: solubility thermodynamic lookup needed for O=C(O)c1nc2ccccc2c2[nH]c3c(I)cccc3c12 [compound 10, reference compound] , thanks.
Marked response: < 0.005 mM

Exam item: I'd like to know its solubility thermodynamic. The molecule in question is O=C1c2c([nH]c3c(Cl)cccc23)CCC1CN1CCCCC1 (racemic)
Marked response: 13.7 mM

Exam item: Request the reported solubility thermodynamic associated with O=c1ccccc2[nH]c3c(Cl)cccc3c12 [compound 11, 4-Chlorocyclohepta[b]indol-10(5H)-one]
Marked response: < 0.005 mM

====

Biological target: CK1
Test: Protein kinase assay, radiometric
Conditions: dose response curves, triplicates
experimental_endpoint: pIC50
Friendly reminder that pIC50 comes from taking -log10 of the concentration in mol/L.

Exam item: Quick check: pIC50 of "O=C1NCCCc2[nH]c3c(Cl)cccc3c21" ?
Marked response: 5.38

Exam item: Which value of pIC50 has been reported for "O=C1NCCc2[nH]c3c(Cl)cccc3c21" in the records?
Marked response: 5.44

====

Biological target: CDK5 (Homo sapiens)
Sequence (Q00535 whole entry, species assumed): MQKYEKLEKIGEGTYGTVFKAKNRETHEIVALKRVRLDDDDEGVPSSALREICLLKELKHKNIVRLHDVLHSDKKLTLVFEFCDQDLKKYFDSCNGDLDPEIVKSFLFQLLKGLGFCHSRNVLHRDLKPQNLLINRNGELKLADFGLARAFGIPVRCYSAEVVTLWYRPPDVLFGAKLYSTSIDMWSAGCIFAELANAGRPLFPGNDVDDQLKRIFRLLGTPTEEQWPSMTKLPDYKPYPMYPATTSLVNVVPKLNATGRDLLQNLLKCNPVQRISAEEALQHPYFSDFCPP
Sequence (Q15078 99-307 partner limits assumed, species assumed): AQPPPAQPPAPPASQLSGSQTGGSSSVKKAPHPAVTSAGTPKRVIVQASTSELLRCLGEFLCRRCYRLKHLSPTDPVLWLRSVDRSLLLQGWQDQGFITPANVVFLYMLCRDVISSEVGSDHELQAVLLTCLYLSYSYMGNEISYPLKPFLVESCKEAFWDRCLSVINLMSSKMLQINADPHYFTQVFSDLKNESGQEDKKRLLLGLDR
experimental_endpoint: pIC50
Here pIC50 is given on a logarithmic scale as minus log10 of the concentration in mol/L.

In [3]: df
Out[3]:
                    smiles_input  data_value
0  O=C1NCCCc2[nH]c3c(Cl)cccc3c21        5.60

Exam item: Reported pIC50 for CDK5 (Homo sapiens), given "O=C1NCCc2[nH]c3c(Cl)cccc3c21" ?
Marked response: 6.09

Exam item: Recorded pIC50 for "O=C1CCCc2[nH]c3c(Cl)cccc3c21" with CDK5 (Homo sapiens), please?
Marked response: 5.09

====

Here, each record is paired with measured pIC50 data.
Molecular target: GSK-3
Experiment: Protein kinase assay, radiometric
Conditions: dose response curves, triplicates
pIC50: −log10 of the molar value.

>>> print(df.to_string())
                                   compound  data_value
0  O=C1CCc2[nH]c3c(Cl)cccc3c21 [compound 12]      < 5.00
1  O=C1NCCCc2[nH]c3c(Cl)cccc3c21 [compound 15]      < 5.00

Moving on to another compound below.
Exam item: # value lookup — system GSK-3, readout pIC50, item O=c1ccccc2[nH]c3c(Cl)cccc3c12 [compound 11, 4-Chlorocyclohepta[b]indol-10(5H)-one]
Marked response: < 5.00

====

Biological target: CK1
Experiment: Protein kinase assay, radiometric
Settings: dose response curves, triplicates
experimental_endpoint: IC50

Known results for compounds:
                       compound  data_value
0  O=C1CCCc2[nH]c3c(Cl)cccc3c21     > 10 µM
1   O=C1CCc2[nH]c3c(Cl)cccc3c21     > 10 µM

Now, please, on to the next compound.
Exam item: GET /values?readout=IC50&item= O=c1ccccc2[nH]c3c(Cl)cccc3c12 [compound 11, 4-Chlorocyclohepta[b]indol-10(5H)-one]
Marked response: > 10 µM
